Just for reference, paper PMC5746249 is where these values come from.

Reported pKd values follow for various binders
# measured target: LC8 dynein light chain (DYNLL2), full-length, His6-tagged (human (by the printed accession Q96FJ2), UniProt Q96FJ2 1-89)
# Sequence (Q96FJ2 whole entry, one chain of several): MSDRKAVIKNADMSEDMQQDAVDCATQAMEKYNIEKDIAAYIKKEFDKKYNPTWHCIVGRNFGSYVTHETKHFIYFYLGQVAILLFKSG
# method: SPR; His6-LC8 immobilised on Ni2+-NTA HTG sensor chip (ProteOn XPR36) at three densities (1200, 900, 600 RU); peptides injected at five concentrations, 60 ul/min; 20 mM Hepes, 150 mM NaCl, 0.05% Tween-20, 0.1 mM TCEP, 50 uM EDTA, pH 7.5; 1:1 Langmuir global fit; apparent Kd, mean of kinetic and equilibrium analysis
# reported conditions: both partners purified
Reminder that pKd is minus the log10 of a molar concentration.

// known answers, use as guide
binder="TGSRDCSTQTE (core 860-867 printed; 11-mer assumed to add 3 N-terminal residues, as in the S1 Table motif format; termini chemistry not stated) [AMOT LC8 binding motif peptide, start 860]" measured_value=5.92
binder="KQYLDVSSQTD (core 278-285 printed; S1 Table prints the 11-mer KQYLDVSSQTD starting at 275; termini chemistry not stated) [WWC1 (KIBRA) LC8 binding motif peptide, start 278]" measured_value=6.35
binder="HGSRDGSTQTE (core 724-731 printed; 11-mer assumed to add 3 N-terminal residues, as in the S1 Table motif format; termini chemistry not stated) [AMOTL2 LC8 binding motif peptide, start 724]" measured_value=5.70

Now for another entry.
q: May I ask what pKd has been recorded for PLKVDKETNTE (printed start 867 appears to be in older 1092-aa numbering (current entry +124, so core 991-998); 11-mer assumed to add 3 N-terminal residues, as in the S1 Table motif format) [WWC3 LC8 binding motif peptide, start 867] ?
a: 5.46
